assay: Half life in overnight-fasted Wistar rat at 0.5 mg/kg, po measured upto 7 hrs by quadrupole mass spectrometry coupled UFLC analysis; assay type: ADME, organism-based; details: in vivo
READOUT: half-life (h)
Numbers only; they are read as h.

## Task Endpoint output: half-life of `COc1cccc2[nH]c(C(=O)N[C@@H](CC(C)C)C(=O)N[C@@H](C[C@@H]3CCNC3=O)C(=O)c3nc4ccccc4s3)cc12` . Value?
## Result 9.64

====

test: Cytotoxicity against African green monkey Vero cells assessed as cell viability incubated for 24 hrs by MTT assay; format: toxicity, cell-based; conditions: chlorocebus sabaeus
READOUT: CC50 at 24 h

## Task Endpoint output: CC50 at 24 h of `COc1cccc2[nH]c(C(=O)N[C@@H](CC(C)C)C(=O)N[C@@H](C[C@@H]3CCNC3=O)C(=O)c3nc4ccccc4s3)cc12` . Value?
## Result > 100 µM

====

assay: Protein binding in rat plasma incubated for 6 hrs by quadrupole mass spectrometry coupled UFLC analysis; format: ADME, cell-free; details: read-out: PPB
READOUT: fraction unbound at 6 h
// response body must contain only the number

## Task Endpoint output: fraction unbound at 6 h of `COc1cccc2[nH]c(C(=O)N[C@@H](CC(C)C)C(=O)N[C@@H](C[C@@H]3CCNC3=O)C(=O)c3nc4ccccc4s3)cc12` . Value?
## Result 0.01

Every entry's value here was drawn from ChEMBL document CHEMBL5042480.
